# TEST SYSTEM: Human GABARAP (residues 1-116) (human, UniProt O95166 1-116)
# Sequence (O95166 1-116): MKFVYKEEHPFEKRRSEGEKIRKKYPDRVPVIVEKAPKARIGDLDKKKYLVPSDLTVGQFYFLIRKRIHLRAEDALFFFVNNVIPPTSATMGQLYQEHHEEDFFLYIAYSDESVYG
# ASSAY TEXT: ITC
Where no end group is shown, it is not given here. [ ]: non-standard residue; d: D form. pS = N[C@@H](COP(=O)(O)O)C(=O)O
For each of the binders below, state its Kd.
Write the number in µM without appending the unit.

I am curious: what Kd value has been reported for SGDDFEELDL [phosphomimetic TEX264^(S271D, S272D) peptide (2SD-LIR)] ?
2.1

Query [pS]GASGSSFEELDL [TEX264 LIR peptide (residues 266-278) with S266 phosphorylation (p-S266)] next
9.3

Query EGEEFEELDL [phosphomimetic TEX264^(S269E, S271E, S272E) peptide (3SE-LIR)] next
2.2

Query SG[pS][pS]FEELDL [phosphorylated TEX264 LIR (residues 269-278 with p-S271,p-S272)] next
0.52

Query SGASGSSFEELDL [TEX264 LIR peptide (residues 266-278), unphosphorylated] next
61

Query DGDDFEELDL [phosphomimetic TEX264^(S269D, S271D, S272D) peptide (3SD-LIR)] next
2.2

Query [pS]G[pS][pS]FEELDL [TEX264 peptide (residues 269-278) with p-S269, p-S271, p-S272] next
0.25

Query SGSSFEELDL [TEX264 LIR peptide (residues 269-278), unphosphorylated wild type] next
47

Query SGEEFEELDL [phosphomimetic TEX264^(S271, 272E) peptide (2SE-LIR)] next
2.3

Query SGS[pS]FEELDL [TEX264 peptide (residues 269-278) with S272 phosphorylation (p-S272)] next
2.1

Data origin, for the record: paper doi:10.1101/2022.02.11.480038
